meta.source: patent US20080026996A1

- Test Target: rat VPAC2 receptor (Rattus norvegicus, UniProt P35000)
- Sequence (P35000 23-437): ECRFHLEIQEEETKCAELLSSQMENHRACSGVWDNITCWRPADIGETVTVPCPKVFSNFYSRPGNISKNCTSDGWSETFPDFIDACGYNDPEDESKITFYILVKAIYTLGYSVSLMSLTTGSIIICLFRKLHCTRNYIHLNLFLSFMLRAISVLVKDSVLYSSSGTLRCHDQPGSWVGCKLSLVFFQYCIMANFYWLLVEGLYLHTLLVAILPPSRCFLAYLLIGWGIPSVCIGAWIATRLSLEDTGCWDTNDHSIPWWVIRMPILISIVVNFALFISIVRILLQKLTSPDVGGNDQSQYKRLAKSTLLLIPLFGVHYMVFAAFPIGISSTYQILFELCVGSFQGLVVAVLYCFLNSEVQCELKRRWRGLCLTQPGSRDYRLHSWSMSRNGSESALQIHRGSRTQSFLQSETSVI
- Method Notes: Competition binding on recombinant rat VPAC2 receptor expressed in CHO cells, 125I-RO 25-1553 tracer
- Set-up: expressed in transfected cells; host or cells: CHO cells, crude membranes
- Condition Info: rat receptors, binding
Where no end group is shown, it is not given here. [ ]: non-standard residue; d: D form. The star is where a group is joined. Hexanoyl = CCCCCC(=O)*; Aib = CC(C)(N)C(=O)O
Measured Parameter: VPAC1/VPAC2 ratio between the IC50 values (index of selectivity)
Just the number.

Consider the following illustrative entries.
| Substance | Numeric Readout |
| --- | --- |
| Hexanoyl-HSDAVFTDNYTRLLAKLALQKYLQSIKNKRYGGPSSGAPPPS [Agonist P119] | 47 |
| H-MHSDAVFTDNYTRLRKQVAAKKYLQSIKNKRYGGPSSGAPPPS [Agonist P104] | 977 |
| Hexanoyl-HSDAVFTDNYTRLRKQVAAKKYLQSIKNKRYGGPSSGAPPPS [Agonist P31] | 546 |

Read the next record carefully.
Name the recorded VPAC1/VPAC2 ratio between the IC50 values (index of selectivity) for Hexanoyl-HSDAVFTDNYTRLR[Aib]QVAA[Aib]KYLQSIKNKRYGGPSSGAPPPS [Agonist P261] .
363
